Test system: CAKI-1
procedure_text: NCI tumour cell line growth inhibition, 48 h
The source made the active and inactive calls. Cut-off read from the data, not from the text of the source: active = GI50 up to about 1.1 µM and inactive = higher.
# GI50 annotations
assay_readout: GI50

>>> result("CCCCN1C(=O)C2Cc3c([nH]c4ccccc34)C(c3cccc(O)c3)N2C1=O (stereo unspecified)")
"18.7 µM (inactive)"
>>> result("O=C(NCCNCCCNC(=O)c1cc(-c2ccccc2)nc2ccccc12)c1cccc(OCc2ccccc2)c1OCc1ccccc1")
"1.61 µM (inactive)"
>>> result("C=C1C(=O)O[C@@H]2/C=C(C)/C=C\\[C@@H]3O[C@@]3(C)C[C@@H](O)C12 (stereo partly specified)")
"8.91 µM (inactive)"
>>> result("COC1/C=C/C(C)C(C(C)C(OC)C(C)CCC(=O)C(C)C(C/C=C/N(C)C=O)OC)OC(=O)C=CC2OC2(C)CC(OC)C(OC)C2=CC(=O)O[C@@H](C(C)C(OC)CC(OC)/C=C/C(C)C(O)C1)[C@H]2O (stereo partly specified)")
"0.00267 µM (active)"
>>> result("NCCc1ccc2c(c1)C(=O)c1c(O)ccc(O)c1C2=O")
"4.84 µM (inactive)"
>>> result("O=C1c2sc(-c3ccc(Cl)cc3)cc2-n2cccc21")
"> 100 µM (inactive)"
>>> result("COc1ccc2c(c1)CCCc1c-2nc2ccccc2c1N")
"9.02 µM (inactive)"
>>> result("C=C[C@H]1CN2CCc3c([nH]c4c([C@@H]5CCCN5C)c(O)ccc34)[C@@H]2C[C@@H]1C[C@H]1c2[nH]c3ccccc3c2CCN1C")
"1.61 µM (inactive)"
>>> result("COC(=O)C(Cc1nc2ccccc2nc1C)/C(=N\\NC(N)=O)C(=O)Nc1cccc([N+](=O)[O-])c1 (stereo unspecified)")
"> 100 µM (inactive)"
>>> result("CCCCC1Cc2cc(O)ccc2-c2nc3cc(O)ccc3n21.CCCCC1Cc2cc(O)ccc2-c2nc3ccc(O)cc3n21 (stereo unspecified)")
"23.7 µM (inactive)"
>>> result("Cc1ccc2c(c1)C1(OC(=O)c3ccccc31)c1ccc(F)cc1O2 (stereo unspecified)")
"30 µM (inactive)"
>>> result("O=C(CSCC(=O)N/N=C/c1cccs1)N/N=C/c1cccs1")
"46.6 µM (inactive)"
>>> result("O=C1NCc2ccccc2S(=O)(=O)n2cccc21")
"> 100 µM (inactive)"
>>> result("CSc1c(C#N)c(N)nc2c(/N=N\\c3ccc(Cl)cc3)c(N)nn12")
"18.7 µM (inactive)"
>>> result("[N-]=[N+]=NCc1cccc(Nc2cc(=O)[nH]c(=O)[nH]2)c1")
"> 100 µM (inactive)"
>>> result("CC(C)=CCC/C(C)=C/CC/C(C)=C/CC/C(=C/CC/C(C)=C\\CC/C(C)=C/CC/C(C)=C/CC/C(C)=C/Cc1cc(O)ccc1O)CO")
"1.71 µM (inactive)"
